target: Orotate phosphoribosyltransferase (Plasmodium falciparum (isolate 3D7)); test: Inhibition Assay; settings: pH 8; 25 °C
readout-name: pKi
# reply with the number alone; pKi is -log10 of concentration in mol/L

Some compounds with known pKi results, for comparison:
{"compound": "O=C(O)c1ccncc1[C@@H]1N[C@H](COP(=O)(O)O)C(O)C1O (some centres undefined)", "quantitative-result": 4.81}
{"compound": "O=[N+]([O-])c1ccc(O[C@@H]2O[C@H](CO)C(O)C2O)cc1 (some centres undefined)", "quantitative-result": 6.72}
{"compound": "O=[N+]([O-])c1ccc(CCNC(CO)CO)cc1", "quantitative-result": 6.29}

# evaluate next
Task item: I am curious: what pKi value has been reported for O=[N+]([O-])c1ccc(CNC(CO)CO)cc1 ?
Reply: 6.30

###

molecular target: Orotate phosphoribosyltransferase (Plasmodium falciparum (isolate 3D7), UniProt Q8I3Y0); experiment: Inhibition Assay; conditions: pH 8; 25 °C
readout-name: Ki (nM)
Give just the numeric value; nM need not be written.

Sample records with Ki:
{"compound": "O=C(O)c1[nH]c(=O)[nH]c(=O)c1CN1CCCC1", "Ki / nM": 470}
{"compound": "O=C1c2cc(=O)[nH]c(=O)n2C[C@H]2C(O)C(O)[C@@H](COP(=O)(O)O)N12 (stereo partly drawn)", "Ki / nM": 170}
{"compound": "O=[N+]([O-])c1ccc(CN2CC(O)[C@@H](CO)C2)cc1 (stereo partly drawn)", "Ki / nM": 750}
{"compound": "O=c1[nH]c(=O)n(CCN2CC(O)C(O)[C@H]2CO)cc1Br (stereo partly drawn)", "Ki / nM": 270}
{"compound": "O=c1[nH]c(=O)n(C[C@@H]2N[C@H](COP(=O)(O)O)C(O)C2O)cc1Br (stereo partly drawn)", "Ki / nM": 370}

Task item: Data request, read-out Ki, for O=[N+]([O-])c1ccc(O[C@@H]2O[C@H](COP(=O)(O)O)C(O)C2O)cc1 (stereo partly drawn)
Reply: 40

Task item: # repeat for O=[N+]([O-])c1ccc(CCN2CC(O)[C@@H](CO)C2)cc1 (stereo partly drawn)
Reply: 570

Task item: Further, for O=C(O)c1[nH]c(=O)[nH]c(=O)c1CN1CC(O)[C@@H](CO)C1 (stereo partly drawn) ?
Reply: 220

###

Target: Orotate phosphoribosyltransferase (Plasmodium falciparum (isolate 3D7))
Sequence (Q8I3Y0 whole entry): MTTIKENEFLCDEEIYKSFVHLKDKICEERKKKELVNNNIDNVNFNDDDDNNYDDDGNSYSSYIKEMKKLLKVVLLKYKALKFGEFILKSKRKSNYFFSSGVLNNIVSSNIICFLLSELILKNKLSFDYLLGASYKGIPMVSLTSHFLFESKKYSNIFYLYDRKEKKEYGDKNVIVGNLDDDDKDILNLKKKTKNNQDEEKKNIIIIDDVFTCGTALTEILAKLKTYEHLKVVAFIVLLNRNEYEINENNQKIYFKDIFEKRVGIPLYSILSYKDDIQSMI
Assay: Inhibition Assay
Settings: pH 8; 25 °C
readout-name: pKi
When answering, recall that pKi equals minus log10 of the concentration in mol/L, and write that number alone.

{"compound": "O=C1c2cc(=O)[nH]c(=O)n2C[C@H]2C(O)C(O)[C@@H](CO)N12 (stereo partly drawn)", "quantitative-result": 6.57}

Task item: Requested read-out: pKi. Entry: O=[N+]([O-])c1ccc([C@@H]2N[C@H](CO)C(O)C2O)cc1 (stereo partly drawn)
Reply: 6.32

Task item: Moving on to the next compound: O=c1[nH]c(=O)n(C[C@@H]2N[C@H](CO)C(O)C2O)cc1Br (stereo partly drawn)
Reply: 6.46

###

molecular target: Uridine 5'-monophosphate synthase (Homo sapiens, UniProt P11172); assay: Inhibition Assay; details: pH 8; 25 °C
Sequence (P11172 whole entry): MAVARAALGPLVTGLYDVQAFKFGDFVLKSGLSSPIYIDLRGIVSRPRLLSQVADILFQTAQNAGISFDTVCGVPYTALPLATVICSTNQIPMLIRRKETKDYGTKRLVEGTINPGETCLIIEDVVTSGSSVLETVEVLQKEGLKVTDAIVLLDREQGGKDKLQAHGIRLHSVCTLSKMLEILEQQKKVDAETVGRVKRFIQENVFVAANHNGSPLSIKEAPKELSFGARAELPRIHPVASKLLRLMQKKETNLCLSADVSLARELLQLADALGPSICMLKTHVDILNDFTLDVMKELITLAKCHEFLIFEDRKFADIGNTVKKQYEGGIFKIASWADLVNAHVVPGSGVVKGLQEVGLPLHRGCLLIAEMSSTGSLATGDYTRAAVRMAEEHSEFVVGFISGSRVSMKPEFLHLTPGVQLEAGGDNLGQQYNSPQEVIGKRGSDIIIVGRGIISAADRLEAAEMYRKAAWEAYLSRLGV
readout-name: pKi
// pKi: -log10(molar conc.)

Task item: # get_value(readout= pKi, system= Uridine 5'-monophosphate synthase (Homo sapiens, UniProt P11172)) for O=[N+]([O-])c1ccc([C@@H]2N[C@H](CO)C(O)C2O)cc1 (stereo partly drawn)
Reply: 6.64

Task item: What do you get for O=c1[nH]c(=O)n(C[C@@H]2N[C@H](CO)C(O)C2O)cc1Br (stereo partly drawn) ?
Reply: 6.28

Task item: O=[N+]([O-])c1ccc(CN2CC(O)[C@@H](CO)C2)cc1 (stereo partly drawn) , same question.
Reply: 6.70

Task item: Same lookup for O=C(O)c1[nH]c(=O)[nH]c(=O)c1CN1CC(O)[C@@H](CO)C1 (stereo partly drawn) , please.
Reply: 7.08

Task item: Next molecule: O=c1[nH]c(=O)n(CCN2CC(O)C(O)[C@H]2CO)cc1Br (stereo partly drawn)
Reply: 7.10

###

target: Orotate phosphoribosyltransferase (Plasmodium falciparum (isolate 3D7), UniProt Q8I3Y0); assay: Inhibition Assay; settings: pH 8; 25 °C
readout-name: pKi
Please treat pKi as minus the base-10 logarithm of the molar concentration.

Consider the reported pKi for these compounds:
{"compound": "N#Cc1cc(=O)[nH]c(=O)n1C[C@@H]1N[C@H](CO)C(O)C1O (stereo not given in full) [OPRT inhibitor, 5]", "pKi": 6.52}
{"compound": "O=C(O)c1[nH]c(=O)[nH]c(=O)c1CN1CC(O)[C@@H](COP(=O)(O)O)C1 (stereo not given in full) [OPRT inhibitor, 15]", "pKi": 6.30}
{"compound": "O=c1[nH]c(=O)n(CCN2CC(O)[C@@H](CO)C2)cc1Br (stereo not given in full) [OPRT inhibitor, 11]", "pKi": 5.89}
{"compound": "N#Cc1cc(=O)[nH]c(=O)n1C[C@@H]1N[C@H](COP(=O)(O)O)C(O)C1O (stereo not given in full) [OPRT inhibitor, 6]", "pKi": 6.46}

API: the following record is the query input.
Task item: What does the data say about its pKi? Entry: O=C(O)c1cc(=O)[nH]c(=O)n1CCN1CC(O)C(O)[C@H]1CO (stereo not given in full) [OPRT inhibitor, 10]
Reply: 6.16

###

target: UniProt P11172
Listing of recorded Ki by entry.
Please give a number only; it is taken to be in nM.

{"compound": "O=C1c2cc(=O)[nH]c(=O)n2C[C@H]2C(O)C(O)[C@@H](COP(=O)(O)O)N12 (stereo partly drawn)", "target-or-test-system": "UniProt P11172", "Ki (nM)": 90}

Task item: Ki for O=C(O)c1ccncc1[C@@H]1N[C@H](COP(=O)(O)O)C(O)C1O (stereo partly drawn) ?
Reply: 4300

Task item: // repeat for O=c1[nH]c(=O)n(C[C@@H]2N[C@H](COP(=O)(O)O)C(O)C2O)cc1Br (stereo partly drawn) and report
Reply: 200

src = BindingDB's records for doi:10.1074/jbc.M113.521955
